# ASSAY SYSTEM: 5HT1A receptors (Rattus norvegicus, UniProt P19327)
# Construct: membranes of the rat hippocampus; from tissue; host or cells: rat hippocampus membranes
# Sequence (P19327 whole entry): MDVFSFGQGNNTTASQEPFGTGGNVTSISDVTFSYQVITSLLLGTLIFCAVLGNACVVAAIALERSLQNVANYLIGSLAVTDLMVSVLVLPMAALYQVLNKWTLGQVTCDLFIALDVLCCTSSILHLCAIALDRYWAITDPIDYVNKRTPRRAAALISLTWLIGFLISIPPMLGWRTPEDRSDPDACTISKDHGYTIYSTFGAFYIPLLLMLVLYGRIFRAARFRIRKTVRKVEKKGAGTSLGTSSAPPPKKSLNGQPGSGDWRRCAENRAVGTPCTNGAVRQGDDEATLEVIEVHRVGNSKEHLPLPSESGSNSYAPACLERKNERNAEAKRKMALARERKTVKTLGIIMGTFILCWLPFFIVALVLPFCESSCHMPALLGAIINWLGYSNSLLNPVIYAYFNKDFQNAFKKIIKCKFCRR
# EXPERIMENT SUMMARY: Binding test: displacement of [^3 H]-8-OH-DPAT from membranes of the rat hippocampus (5HT1A)
# MEASUREMENT PARAMETERS: rat hippocampus membranes, [^3 H]-8-OH-DPAT; read-out: BINDING pKi 5HT1A (converted)
Record form. Attribute: Ki. Fill in for each entry.
Express the result in µM but write the number alone.

Query string: I would be grateful if you could share the reported Ki for FC(F)(F)c1ccnc(N2CCNCC2)c1 .
Result string: 2.51

Query string: I would be grateful if you could share the reported Ki for FC(F)(F)c1cnc(N2CCNCC2)c(Cl)c1 .
Result string: 3.98

Query string: I would be grateful if you could share the reported Ki for FC(F)(F)c1cnc(N2CCNCC2)cc1C(F)(F)F .
Result string: 79.4
